All values here come from patent US5030760A.

Tested on: wild oat
Assay: Test Example 1, foliar treatment, herbicidal activity; note: ranges in brackets are in %
Format: in vivo, Avena fatua
Conditions: 5 g/are, 3 weeks
property.name: Herbicidal activity, Wild cat

What measured Herbicidal activity, Wild cat is associated with CCC(C)Oc1cc(N2C(=O)C3=C(CCCC3)C2=O)c(F)cc1Br (stereo not drawn) on wild oat? 5 (0)

What measured Herbicidal activity, Wild cat is associated with CCC(C)Oc1cc(N2C(=O)C3=C(CCCC3)C2=O)c(F)cc1Cl (stereo not drawn) on wild oat? 5 (0)

What measured Herbicidal activity, Wild cat is associated with CC(C)Oc1cc(N2C(=O)C3=C(CCCC3)C2=O)c(Cl)cc1Cl [B, reference compound] on wild oat? 1 (41-60)

What measured Herbicidal activity, Wild cat is associated with "CC(C)COc1cc(N2C(=O)C3=C(CCCC3)C2=O)c(F)cc1Cl" on wild oat? 4 (1-10)

What measured Herbicidal activity, Wild cat is associated with "COc1cc(N2C(=O)C3=C(CCCC3)C2=O)c(F)cc1Br" on wild oat? 5 (0)

What measured Herbicidal activity, Wild cat is associated with "CCOc1cc(N2C(=O)C3=C(CCCC3)C2=O)c(F)cc1Br" on wild oat? 5 (0)

What measured Herbicidal activity, Wild cat is associated with "COc1cc(N2C(=O)C3=C(CCCC3)C2=O)c(F)cc1Cl" on wild oat? 5 (0)

What measured Herbicidal activity, Wild cat is associated with "CCCOc1cc(N2C(=O)C3=C(CCCC3)C2=O)c(F)cc1Cl" on wild oat? 5 (0)

What measured Herbicidal activity, Wild cat is associated with O=C1C2=C(CCCC2)C(=O)N1c1ccc(Cl)cc1F [A, reference compound] on wild oat? 1 (41-60)

What measured Herbicidal activity, Wild cat is associated with "CCOc1cc(N2C(=O)C3=C(CCCC3)C2=O)c(F)cc1Cl" on wild oat? 5 (0)

What measured Herbicidal activity, Wild cat is associated with "CCCCOc1cc(N2C(=O)C3=C(CCCC3)C2=O)c(F)cc1Cl" on wild oat? 3 (11-20)

What measured Herbicidal activity, Wild cat is associated with "CCCOc1cc(N2C(=O)C3=C(CCCC3)C2=O)c(F)cc1Br" on wild oat? 5 (0)
